For each entry below, report its inhibition at 30 µM value.
- System: IL6 production in RAW 264.7 macrophage cell line
- procedure-text: Mouse IL6 quantification assay (LPS-stimulated macrophages, ELISA)
- Format: cell-based
- setup-conditions: RAW264.7, RAW 264.7 murine leukemia virus transformed macrophage cell lines, LPS stimulation, read-out: IL-6 % Inhibition at 30 μM

Field request: inhibition at 30 µM | item: O=C(c1csc2c(O)nc(-c3ccccn3)nc12)N1CCNC(Cc2ccccc2)C1 (stereo not drawn) [drawing 2202]
76 to 100%

Field request: inhibition at 30 µM | item: O=C(Cc1ccc(-n2cnnn2)cc1)Nc1nnc(-c2ccccn2)[nH]1 [drawing 1927]
0%

Field request: inhibition at 30 µM | item: Brc1csc2nc(-c3ccccn3)nc(N3CCOCC3)c12 [drawing 2126]
51 to 75%

Field request: inhibition at 30 µM | item: COc1ccc(-c2csc3c(O)nc(-c4nccn4C)nc23)cn1 [drawing 2440]
76 to 100%

Field request: inhibition at 30 µM | item: Cc1sc2nc(-c3ccccn3)nc(NCCCO)c2c1-c1ccccc1 [drawing 2045]
1 to 25%

Field request: inhibition at 30 µM | item: Cc1sc2c(O)nc(-c3ccccn3)nc2c1-c1ccccc1Cl [drawing 2342]
51 to 75%

Field request: inhibition at 30 µM | item: Oc1nc(-c2ccccn2)nc2c(-c3ccsc3)csc12 [drawing 2267]
76 to 100%

Field request: inhibition at 30 µM | item: O=C(Nc1nnc(-c2ccccn2)[nH]1)c1nc(N2CCOCC2)ncc1Cl [drawing 1964]
1 to 25%

Field request: inhibition at 30 µM | item: O=C(c1csc2c(O)nc(-c3ccccn3)nc12)N1CCN(Cc2ccc(O)c(Cl)c2)CC1 [drawing 2190]
76 to 100%

---

- target-or-system: KRas G12C/Q61H double mutant (Homo sapiens (Human), UniProt P01116, G12C/Q61H)
- Sequence (P01116-2 other isoform, or with tags, fused parts or gaps G12C/Q61H): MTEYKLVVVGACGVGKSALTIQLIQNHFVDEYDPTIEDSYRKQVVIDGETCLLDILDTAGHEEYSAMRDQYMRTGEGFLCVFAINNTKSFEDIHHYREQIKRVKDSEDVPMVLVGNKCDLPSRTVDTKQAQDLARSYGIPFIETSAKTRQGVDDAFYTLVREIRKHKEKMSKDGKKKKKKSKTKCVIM
- procedure-text: Ras GTP binding domain inhibition assay (labeled GTP)
- setup-conditions: 20 μM compound; KRas G12C/Q61H double mutant; read-out: % Inhibition at 20 μM of K-Ras mutant and wild-type protein, KRas G12C Q61H
readout: inhibition at 20 µM

KRas G12C/Q61H double mutant (Homo sapiens (Human), UniProt P01116, G12C/Q61H) / inhibition at 20 µM / Oc1nc(-c2ccccn2)nc2c(CC3CNC3)csc12 [drawing 3519] : value?
51 to 75%

KRas G12C/Q61H double mutant (Homo sapiens (Human), UniProt P01116, G12C/Q61H) / inhibition at 20 µM / COCC(C)Nc1nc(-c2ccccn2)nc(C(=O)NCCCc2c[nH]cn2)c1Oc1ccccc1 (stereo not shown) [drawing 3550] : value?
1 to 25%

KRas G12C/Q61H double mutant (Homo sapiens (Human), UniProt P01116, G12C/Q61H) / inhibition at 20 µM / Cc1sc2c(O)nc(-c3ccccn3)nc2c1-c1ccncc1 [drawing 3497] : value?
25 to 50%

KRas G12C/Q61H double mutant (Homo sapiens (Human), UniProt P01116, G12C/Q61H) / inhibition at 20 µM / COc1cnc(-c2cn(C)cn2)nc1O [drawing 3496] : value?
51 to 75%

KRas G12C/Q61H double mutant (Homo sapiens (Human), UniProt P01116, G12C/Q61H) / inhibition at 20 µM / Oc1nc(-c2ccccn2)nc2c(-c3cncc(C(F)F)c3)csc12 [drawing 3507] : value?
1 to 25%

KRas G12C/Q61H double mutant (Homo sapiens (Human), UniProt P01116, G12C/Q61H) / inhibition at 20 µM / Oc1nc(-c2ccccn2)nc2c(-c3cncc(F)c3)csc12 [drawing 3464] : value?
1 to 25%

KRas G12C/Q61H double mutant (Homo sapiens (Human), UniProt P01116, G12C/Q61H) / inhibition at 20 µM / Cn1cnc(-c2nc(O)c3sc(-c4ccncc4)c(-c4ccccc4)c3n2)c1 [drawing 3549] : value?
1 to 25%

KRas G12C/Q61H double mutant (Homo sapiens (Human), UniProt P01116, G12C/Q61H) / inhibition at 20 µM / Oc1nc(-c2ccccn2)nc2c(C3CCCC3)csc12 [drawing 3495] : value?
51 to 75%

KRas G12C/Q61H double mutant (Homo sapiens (Human), UniProt P01116, G12C/Q61H) / inhibition at 20 µM / Cc1nn(C(C)C)cc1-c1csc2c(O)nc(-c3ccccn3)nc12 [drawing 3506] : value?
51 to 75%

KRas G12C/Q61H double mutant (Homo sapiens (Human), UniProt P01116, G12C/Q61H) / inhibition at 20 µM / CC(C)c1csc2c(O)nc(-c3ccccn3)nc12 [drawing 3487] : value?
51 to 75%

KRas G12C/Q61H double mutant (Homo sapiens (Human), UniProt P01116, G12C/Q61H) / inhibition at 20 µM / Cc1cc2nc(-c3ccccn3)nc(O)c2s1 [drawing 3472] : value?
51 to 75%

KRas G12C/Q61H double mutant (Homo sapiens (Human), UniProt P01116, G12C/Q61H) / inhibition at 20 µM / Cc1c(C(=O)N2CCN(c3ccccc3)CC2)sc2c(O)nc(-c3ccccn3)nc12 [drawing 3483] : value?
51 to 75%

KRas G12C/Q61H double mutant (Homo sapiens (Human), UniProt P01116, G12C/Q61H) / inhibition at 20 µM / Oc1nc(-c2ccccn2)nc2c(C3CCC3)csc12 [drawing 3478] : value?
51 to 75%

KRas G12C/Q61H double mutant (Homo sapiens (Human), UniProt P01116, G12C/Q61H) / inhibition at 20 µM / Oc1nc(-c2ccccn2)nc2c(C3CCCCC3)csc12 [drawing 3511] : value?
25 to 50%

KRas G12C/Q61H double mutant (Homo sapiens (Human), UniProt P01116, G12C/Q61H) / inhibition at 20 µM / COc1ccc(CCC(=O)Nc2nc(-c3ccccn3)nc3sccc23)cn1 [drawing 3493] : value?
51 to 75%

KRas G12C/Q61H double mutant (Homo sapiens (Human), UniProt P01116, G12C/Q61H) / inhibition at 20 µM / Cc1ccc(-c2csc3c(O)nc(-c4ccccn4)nc23)cc1 [drawing 3560] : value?
1 to 25%

KRas G12C/Q61H double mutant (Homo sapiens (Human), UniProt P01116, G12C/Q61H) / inhibition at 20 µM / Oc1nc(-c2ccccn2)nc2c(-c3cc(C(F)(F)F)ccc3F)csc12 [drawing 3465] : value?
1 to 25%

KRas G12C/Q61H double mutant (Homo sapiens (Human), UniProt P01116, G12C/Q61H) / inhibition at 20 µM / COc1cnc(CNC(=O)c2c(C)sc3c(O)nc(-c4ccccn4)nc23)[nH]c1=O [drawing 3523] : value?
1 to 25%

KRas G12C/Q61H double mutant (Homo sapiens (Human), UniProt P01116, G12C/Q61H) / inhibition at 20 µM / COc1nc(-c2ccccn2)nc2c1c(-c1ccccc1)nn2-c1ccccn1 [drawing 3540] : value?
25 to 50%

All figures here come from patent US10940139B2.
